# Method summary: probe aNOTCH3 binding on compound microarray – biochemical, small-molecule microarray, 635/667 nm fluorescence, primary screen (AID 1120);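 further: probe is a biotin-tagged antibody raised against NOTCH3 rather than NOTCH3 protein; score merges spot fluorescence near 667 nm with spot signal to noise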
# Measurement conditions: higher = more signal

{"Compound": "CN1C(=O)C2C=CC(C(O)c3ccccc3)N(NC(=O)OC(C)(C)C)C2C1=O (stereo not given)", "composite z-score": 0.245}
{"Compound": "C=C(CCCC)/C(=C/C[C@@H](OC(=O)c1ccncc1)c1ccc(CO)o1)c1cc(C(=O)OC)ccc1OC", "composite z-score": 0.0897}
{"Compound": "Oc1ccc2cc[n+](Cc3cccc(OC(F)(F)F)c3)cc2c1", "composite z-score": -0.215}
{"Compound": "CN1C(=O)C2C=CC(C(O)C(c3ccccc3)c3ccccc3)N(Nc3ccccc3)C2C1=O (stereo not given)", "composite z-score": 0.466}
{"Compound": "C=C[C@H](OC)[C@@H](OC(=O)Nc1ccc(SC)cc1)c1ccc(OCCO)cc1", "composite z-score": -0.15}

###

# Method summary: JC-1 mitochondrial signal, unstimulated HepG2 cells – cell-based, JC-1 fluorescence, 24 h, 100 nL compound, profiling panel (AID 1167); further: test concentration not given here
# Measurement conditions: HepG2 mitochondrial potential, higher = more signal
Each entry below lists one item and its recorded z-score value.

{"Compound": "COCCOC(=O)N1C(=O)[C@@]2(c3cc(C#Cc4ccc(OC)cc4)ccc31)[C@H](c1ccc(OCCO)cc1)N1[C@H](c3ccccc3)[C@H](c3ccccc3)OC(=O)[C@H]1[C@@H]2C(=O)N1CCc2cc(OC)c(OC)cc2C1", "z-score": -0.343}
{"Compound": "C=CCC(OC(C)=O)[C@@H]1[C@@H](N(Cc2ccc(-c3ccccc3)cc2)C(=O)c2ccc(C)cc2)c2cc(OCCCO)ccc2N1C(=O)Cc1ccc(OC)cc1 (some centres undefined)", "z-score": 4.08}
{"Compound": "C=CCN1Cc2ccccc2C[C@]2(N=C(c3ccc(OCCCO)cc3)O[C@@H]2c2ccccc2)C1=O", "z-score": 0.96}
{"Compound": "CCOC1=C2C(c3ccc(C)cc3)N(S(=O)(=O)c3ccc(C)cc3)CC2n2c(=O)n(-c3ccccc3)c(=O)n2C1 (centres undefined)", "z-score": 1.53}
{"Compound": "CCCCCCC#C[Si](O[C@H](c1ccccc1)c1cn([C@H](C)c2ccccc2)nn1)(C(C)C)C(C)C", "z-score": 3.36}
{"Compound": "C=CCC(OC(C)=O)[C@@H]1[C@@H](N(Cc2cc3ccccc3o2)C(=O)c2cccc3ccccc23)c2cc(OCCCO)ccc2N1C(=O)Cc1ccc2ccccc2c1 (some centres undefined)", "z-score": 2.07}
{"Compound": "O=C1OCC=C[C@H]2OC34C=CCN(c5ccc(Cl)cc5)C(=O)[C@H]3N(CCCO)C(=O)[C@@H]4[C@@H]12 (some centres undefined)", "z-score": -0.545}
{"Compound": "CCOC(=O)C1=CC[C@@H](c2cccc(Cl)c2)N(S(=O)(=O)c2ccc(C)cc2)[C@H]1c1ccc(C#N)cc1", "z-score": 1.38}
{"Compound": "C=C(/C(=C/C[C@@H](OC(C)=O)c1ccc(CO)o1)c1cnc2ccccc2c1)C(C)C", "z-score": -1.33}
{"Compound": "Cc1ccc(N2C(=O)c3ccccc3[C@@H](C(=O)NC(C)C)[C@@H]2c2ccc(CO)cc2)nc1", "z-score": 0.199}
{"Compound": "CC(=O)N1Cc2ccccc2C[C@@]2(N=C(c3ccc(OCCCO)cc3)O[C@H]2c2ccccc2)C1=O", "z-score": 1.8}
{"Compound": "NC(=O)NCC#Cc1ccc2c(c1)[C@]1(C(=O)N2)[C@H](c2ccc(O)cc2)N2[C@H](c3ccccc3)[C@H](c3ccccc3)OC(=O)[C@H]2[C@@H]1C(=O)N1CCN(c2ncccn2)CC1", "z-score": -1.83}
{"Compound": "COc1ccc([Si](C)(C)[C@@H]2[C@@H](CCn3cc([C@H](O)c4ccccc4)nn3)O[C@]3(C(=O)N(C)c4ccccc43)[C@H]2C)cc1", "z-score": 0.988}
{"Compound": "COc1ccc([Si](C)(C)[C@H]2[C@H](CC(=O)N3CCC[C@H]3CO)O[C@@]3(C(=O)N(c4ccccc4)c4ccccc43)[C@@H]2C)cc1", "z-score": 2.53}

###

# Target system: Torsin-1A-interacting protein 2 (Homo sapiens)
# Method summary: small molecules binding lysate-expressed LULL1 – cell lysate, human LULL1 lysate, 635/667 nm fluorescence, primary screen (AID 1092);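 further: probe is lysate of COS7 cells overexpressing human LULL1; score merges per-feature 667 nm fluorescence with signal-to-noise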
# Measurement conditions: small-molecule microarray, hLULL1 lysate binding, 635 nm fluorescence; higher = more signal
Each entry below lists one item and its recorded composite z-score value.

{"Compound": "O=C(NCC(O)CO)[C@@]1(Cc2ccccc2)COC(c2ccc(OCCCO)cc2)=N1 (stereo partly drawn)", "composite z-score": 1.1}
{"Compound": "O=C1O[C@@H](c2ccccc2)[C@@H](c2ccccc2)N2[C@@H](c3ccc(O)cc3)[C@]3(C(=O)Nc4ccc(C#CCCO)cc43)[C@@H](C(=O)O)[C@H]12", "composite z-score": 2.79}
{"Compound": "CCCCCN1CC=CC23O[C@@H]4C=CCCOC(=O)C4[C@H]2C(=O)N(CCCO)[C@@H]3C1=O (stereo partly drawn)", "composite z-score": -0.651}
{"Compound": "C=CC[C@]1(C(=O)O)N=C(c2ccc(OCCCO)cc2)O[C@H]1c1ccccc1CN=[N+]=[N-]", "composite z-score": 1.55}
{"Compound": "Cc1ccc(S[C@]2(C(=O)NCCN3CCOCC3)CC(=O)N(C3CCCCC3)[C@@H]2c2ccc(CO)cc2)cc1", "composite z-score": 3.05}
{"Compound": "[N-]=[N+]=NCc1ccccc1[C@H]1OC(c2ccc(OCCCO)cc2)=N[C@@]1(Cc1ccccc1)C(=O)O", "composite z-score": 2.81}
{"Compound": "COC(=O)[C@@]1(Cc2ccc(OC)cc2)[C@H]2c3cc(C(=O)N4CCCC4)n(CCc4ccccn4)c3C[C@H]2CN1C(=O)c1ccccc1", "composite z-score": 3.62}
{"Compound": "[N-]=[N+]=Nc1ccccc1[C@@H]1OC(c2ccc(OCCCO)cc2)=N[C@]1(CCS(=O)(=O)c1ccccc1)C(=O)O", "composite z-score": 3.39}

###

# Method summary: compound effects on differentiated 3T3-L1 adipocyte viability – cell-based, 3T3-L1 adipocytes, calcein-AM fluorescence, 48 h, basal, profiling panel (AID 1163); further: test concentration not given here
# Measurement conditions: 3T3-L1 adipocytes viability, higher = more signal
So basically, if z-score comes in under 0.4 it's Criterion met, and if it's 0.4 or more it's Criterion not met.

{"Compound": "O=C(NCCN1CCOCC1)[C@@H]1c2ccccc2C(=O)N(Cc2cc(F)cc(C(F)(F)F)c2)[C@H]1c1ccc(CO)cc1", "Label class": "Criterion not met"}
{"Compound": "O=c1cccc(-c2cccc3ccccc23)o1", "Label class": "Criterion met"}
{"Compound": "COCCOC(=O)N1C(=O)[C@@]2(c3ccccc31)[C@H](C(=O)N1CCCCCCC1)[C@H]1C(=O)O[C@H](c3ccccc3)[C@H](c3ccccc3)N1[C@@H]2c1ccccc1OCCO", "Label class": "Criterion met"}
{"Compound": "CCOC(=O)C1=CC[C@@H](c2ccccc2)N(S(=O)(=O)c2ccc(C)cc2)[C@H]1c1ccc(C#N)cc1", "Label class": "Criterion met"}
{"Compound": "O=C1C2C=CC(C(O)C3CC=CCC3)N(n3cnnc3)C2C(=O)N1Cc1ccccc1 (stereo unspecified)", "Label class": "Criterion met"}
{"Compound": "O=C1C2C=CC(C(O)c3ccccn3)N(Nc3ccccc3F)C2C(=O)N1c1ccccc1 (stereo unspecified)", "Label class": "Criterion met"}
{"Compound": "C=CCNC(=O)[C@H]1[C@@H]2C(=O)O[C@@H](c3ccccc3)[C@@H](c3ccccc3)N2[C@@H](c2ccc(OCCO)cc2)[C@]12C(=O)N(C(=O)OCCOC)c1ccc(C#CC3(O)CCCCCC3)cc12", "Label class": "Criterion not met"}
{"Compound": "O=C(CS)NCCCCCNC(=O)[C@H]1C[C@H]2C(=O)N[C@@H](Cc3ccccc3)C(=O)N2[C@H]1c1cccc(OCCO)c1", "Label class": "Criterion met"}
{"Compound": "C[C@H]1C2[C@H](Cc3ccccc3)NC(=O)[C@]23C(=O)N[C@H](Cc2ccccc2)C(=O)N[C@H](Cc2ccccc2)C(=O)NC/C=C/CCC/C=C/C3[C@@H]2O[C@]12C (stereo partly specified)", "Label class": "Criterion not met"}
{"Compound": "Cc1ccc(S[C@]2(C(=O)NCC(F)(F)F)CC(=O)N(C3Cc4ccccc4C3)[C@@H]2c2ccc(CO)cc2I)cc1", "Label class": "Criterion met"}
{"Compound": "O=C1[C@H]2C=C(Br)[C@H](C[C@@H]2OCCOCCO)[C@@]12CO2", "Label class": "Criterion met"}
{"Compound": "CC1CC/C=C\\[C@H]2OC34C=CCN(CCN5CCOCC5)C(=O)[C@H]3N(CCCCCO)C(=O)[C@@H]4C2C(=O)O1 (stereo partly specified)", "Label class": "Criterion met"}
{"Compound": "COCCn1c(C(=O)N(C)C)cc2c1C[C@H]1CN(C(=O)c3ccccc3)[C@@](Cc3ccc(F)cc3)(C(=O)OC)[C@@H]21", "Label class": "Criterion met"}
{"Compound": "C=CCOC(=O)[C@@H]1[C@H]2C(=O)O[C@H](c3ccccc3)[C@H](c3ccccc3)N2[C@H](c2ccc(OCCOC(=O)[C@H]3C[C@H]4C(=O)N[C@@H](CC(C)C)C(=O)N4[C@H]3c3cccc(OCCO)c3)cc2)[C@@]12C(=O)Nc1ccc(I)cc12", "Label class": "Criterion not met"}
{"Compound": "O=C1OCCC/C=C\\[C@H]2OC34C=CCN(Cn5nnc6ccccc65)C(=O)[C@H]3N(CCCO)C(=O)[C@@H]4C12 (stereo partly specified)", "Label class": "Criterion not met"}
{"Compound": "COc1ccc(C#Cc2ccc3c(c2)[C@]2(C(=O)N3)[C@H](C(=O)N3CCc4cc(OC)c(OC)cc4C3)[C@H]3C(=O)O[C@H](c4ccccc4)[C@H](c4ccccc4)N3[C@@H]2c2ccc(OCCO)cc2)cc1", "Label class": "Criterion met"}
{"Compound": "Cc1cc(C)c(C(O)C2C=CC3C(=O)NC(=O)C3N2Nc2ccccn2)c(C)c1 (stereo unspecified)", "Label class": "Criterion met"}
{"Compound": "CN1C(=O)C2C(C1=O)C1C=C(c3ccc(CO)cc3)C2C(C2CC2)N1Cc1sc2ccccc2c1Cl (stereo unspecified)", "Label class": "Criterion not met"}
{"Compound": "COCCOC(=O)N1C(=O)[C@@]2(c3cc(C#CC4=CCCCC4)ccc31)[C@H](C(=O)N1CCN(c3ncccn3)CC1)[C@H]1C(=O)O[C@H](c3ccccc3)[C@H](c3ccccc3)N1[C@@H]2c1ccc(OCCO)cc1", "Label class": "Criterion not met"}
{"Compound": "CCOC(=O)C[C@H]1[C@H](OC(=O)c2ccc(C(=O)c3ccccc3)cc2)[C@@H](NC(=O)c2ccc3ccccc3n2)c2cc(OCCCO)ccc2N1C(=O)c1ccc2ccccc2n1", "Label class": "Criterion met"}
{"Compound": "CC(C)N1C(=O)c2ccccc2[C@](C)(C(=O)NCCCN(C)C)[C@@H]1c1ccc(CO)cc1", "Label class": "Criterion met"}
{"Compound": "COc1ccc([Si](C)(C)[C@@H]2[C@@H](CC(=O)N3Cc4ccccc4C[C@H]3CO)O[C@]3(C(=O)N(Cc4cccc(N5C(=O)COc6ccccc65)c4)c4ccccc43)[C@H]2C)cc1", "Label class": "Criterion not met"}
{"Compound": "COCCCNC(=O)[C@@]1(C)c2ccccc2C(=O)N(Cc2ccccc2)[C@H]1c1ccc(CO)cc1", "Label class": "Criterion not met"}
{"Compound": "CO[C@H]1O[C@H](CO)[C@@H](OC(=O)Nc2cccc(F)c2)[C@H](OC(=O)Nc2ccccc2-c2ccccc2)[C@@H]1OC(=O)Nc1ccccc1-c1ccccc1", "Label class": "Criterion not met"}
{"Compound": "O=C1O[C@H](c2ccccc2)[C@H](c2ccccc2)N2[C@H]1[C@@H](C(=O)NC[C@H](O)c1ccccc1)[C@]1(C(=O)Nc3ccc(C#CC4=CCCCC4)cc31)[C@H]2c1ccc(O)cc1", "Label class": "Criterion not met"}
